Assay: LD50 (mouse), acute toxicity
Conditions: in vivo, ip
Lab note: compare LD50 with 400 mg/kg, writing True if less and False if equal or more.

CC(CC#N)NCC(=O)N(C)c1ccc(Cl)cc1C(=O)c1ccccc1 (centres unmarked) : True
Cc1ccc(N(C)C(=O)CNC(C)CC#N)c(C(=O)c2ccccc2)c1 (centres unmarked) : True
CCCCN(CCC#N)CC(=O)N(C)c1ccc(Cl)cc1C(=O)c1ccccc1 : True
CN(CCC#N)CC(=O)N(C)c1ccc(Cl)cc1C(=O)c1ccccc1 : True
C=CCN(CCC#N)CC(=O)Nc1ccc(Cl)cc1C(=O)c1ccccc1Cl : False

### Prompt In plain terms, does COc1ccc(N(C)C(=O)CNC(C)CC#N)c(C(=O)c2ccccc2)c1 (centres unmarked) come in under 400 mg/kg for LD50?
### Response True

### Prompt In plain terms, does "CN(CCC(=O)O)CC(=O)Nc1ccc(Cl)cc1C(=O)c1ccccc1" come in under 400 mg/kg for LD50?
### Response False

### Prompt In plain terms, does CC(C#N)CNCC(=O)Nc1ccc(Cl)cc1C(=O)c1ccccc1 (centres unmarked) come in under 400 mg/kg for LD50?
### Response False

### Prompt In plain terms, does "CCOC(=O)CCCNCC(=O)N(C)c1ccc([N+](=O)[O-])cc1C(=O)c1ccccc1" come in under 400 mg/kg for LD50?
### Response False

### Prompt In plain terms, does CCCC(C)(COC(N)=O)COC(N)=O [Meprobamate, reference compound] come in under 400 mg/kg for LD50?
### Response False

Origin of values: patent US3931314A
